Assay: Inhibition of bovine heart NADH oxidase activity using submitochondrial particle as source of enzyme measured after 4 mins
Type: mitochondria, Bos taurus, Mitochondria
quantity: log10 of IC50 (log10 of the value in nM)

compoundstructurestring=Cc1ccc(S(=O)(=O)N2CCC[C@H]2COCOCCCc2ccccc2)cc1 observedresult=3.04
compoundstructurestring=O=S(=O)(c1ccc(Cl)cc1)N1CCC[C@H]1COCOC[C@@H]1CCCN1S(=O)(=O)c1ccc(Cl)cc1 observedresult=3.04
compoundstructurestring=COCOC[C@@H]1CCCN1S(=O)(=O)c1ccc(C)cc1 observedresult=4.93
compoundstructurestring=CCCCCCOCCCS(=O)(=O)N1CCC[C@H]1COCOC[C@@H]1CCCN1S(=O)(=O)CCCOCCCCCC observedresult=2.41
compoundstructurestring=CCCCCCCCCCCCS(=O)(=O)N1CCC[C@H]1COCOC[C@@H]1CCCN1S(=O)(=O)CCCCCCCCCCCC observedresult=3.81
compoundstructurestring=CCCCCCCc1ccc(S(=O)(=O)N2CCC[C@H]2COCOC[C@@H]2CCCN2S(=O)(=O)c2ccc(CCCCCCC)cc2)cc1 observedresult=3.56
compoundstructurestring=Cc1ccc(S(=O)(=O)N2CCC[C@H]2CCOCOCC[C@@H]2CCCN2S(=O)(=O)c2ccc(C)cc2)cc1 observedresult=2.79
compoundstructurestring=Cc1ccc(C(=O)N2CCC[C@H]2COCOC[C@@H]2CCCN2C(=O)c2ccc(C)cc2)cc1 observedresult=3.70
compoundstructurestring=O=S(=O)(CCCOc1ccc(I)cc1)N1CCC[C@H]1COCOC[C@@H]1CCCN1S(=O)(=O)CCCOc1ccc(I)cc1 observedresult=1.15
compoundstructurestring=Cc1ccc(S(=O)(=O)N2CCCC[C@H]2COCOC[C@@H]2CCCCN2S(=O)(=O)c2ccc(C)cc2)cc1 observedresult=3.41
compoundstructurestring=O=S(=O)(CCCOc1ccccc1)N1CCC[C@H]1COCOC[C@@H]1CCCN1S(=O)(=O)CCCOc1ccccc1 observedresult=3.38
